- assay-details: Photophysical measurements (absorption, emission, lifetime, quantum yield) in diluted solutions
- Type: physicochemical
- assay-conditions: DCM; calculated as [φ/τ] from deaerated solutions
value-kind: kr

| molecule | observed-measurement |
| --- | --- |
| c1cc[c]2c(c1)-c1cccc[n+]1[Ir]213([c]2ccccc2-c2cccc[n+]21)[n]1nnnc1-c1c2ccccc2cc[n+]13 [[Ir(ppy)2(TziQn)]] | 0.214 10^5s^−1 |
| c1cc[c]2c(c1)-c1cccc[n+]1[Ir]213([c]2ccccc2-c2cccc[n+]21)[n]1nnnc1-c1ccc2ccccc2[n+]13 [[Ir(ppy)2(TzQn)]] | 0.782 10^5s^−1 |
| N#Cc1ccc2[n+](c1)[Ir]13([c]4cc(F)cc(F)c4-c4cccc[n+]41)([c]1cc(F)cc(F)c1-c1cccc[n+]13)[n]1nnnc1-2 [[Ir(F2ppy)2(TzPyCN)]] | 5.825 10^5s^−1 |
| C[n+]1nc2[n](n1)[Ir]13([c]4ccccc4-c4cccc[n+]41)([c]1ccccc1-c1cccc[n+]13)[n+]1c-2ccc2ccccc21 [[Ir(ppy)2(MeTzQn)]^+] | 0.788 10^5s^−1 |
| C[n+]1nc2[n](n1)[Ir]13([c]4ccccc4-c4cccc[n+]41)([c]1ccccc1-c1cccc[n+]13)[n+]1cc(-c3ccc(C#N)cc3)ccc1-2 [[Ir(ppy)2(MeTzPyPhCN)]^+] | 2.143 10^5s^−1 |
| N#Cc1ccc(-c2ccc3[n+](c2)[Ir]24([c]5ccccc5-c5cccc[n+]52)([c]2ccccc2-c2cccc[n+]24)[n]2nnnc2-3)cc1 [[Ir(ppy)2(TzPyPhCN)]] | 1.693 10^5s^−1 |

The reported measurements were obtained from patent US20190226949A1.
